System: A431
Test: MTT antiproliferative assay
Type: cell-based
Settings: Homo sapiens, A-431, 24 h, read-out: IC50 (MTT)
endpoint name: IC50 (µM)
I only need the number, in µM, no unit after it.

Which value of IC50 has been reported for COc1cccc2c1C(=O)c1c(O)c3c(c(O)c1C2=O)C[C@@](O)(C(=O)CO)C[C@@H]3O[C@H]1C[C@H](N)[C@H](O)[C@H](C)O1 [Doxorubicin, reference compound] in the records?
1.6

Which value of IC50 has been reported for CC(C)[C@@H]1CC[C@@H](C)C[C@@H]1O [neomenthol, (+)-Neomenthol] in the records?
17.3

* * *

Biological target: Ornithine decarboxylase (ODC) (Homo sapiens, UniProt P11926)
Sequence (P11926 whole entry): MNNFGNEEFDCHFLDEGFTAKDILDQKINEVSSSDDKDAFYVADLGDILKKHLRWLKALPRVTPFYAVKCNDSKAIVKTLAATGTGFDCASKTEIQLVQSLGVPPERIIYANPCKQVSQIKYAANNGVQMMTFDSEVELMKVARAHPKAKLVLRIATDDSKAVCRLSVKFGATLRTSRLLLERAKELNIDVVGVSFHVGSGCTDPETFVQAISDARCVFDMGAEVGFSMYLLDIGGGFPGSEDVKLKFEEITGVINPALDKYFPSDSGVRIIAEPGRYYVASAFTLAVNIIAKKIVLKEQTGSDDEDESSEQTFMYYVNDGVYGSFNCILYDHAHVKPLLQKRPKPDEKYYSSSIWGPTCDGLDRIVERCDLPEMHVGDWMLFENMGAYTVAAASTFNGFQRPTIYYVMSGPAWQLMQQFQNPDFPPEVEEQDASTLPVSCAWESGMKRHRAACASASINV
Assay: ODC assay, cell-based
Details: IC50 ODC, cell based, K562
endpoint name: pIC50
Would you please state pIC50, meaning minus log10 of the concentration in mol/L, as a bare number?

Which value of pIC50 has been reported for CC(C)[C@@H]1CC[C@@H](C)C[C@@H]1O [neomenthol, (+)-Neomenthol] in the records?
4.53

* * *

Biological target: COX-2 (Homo sapiens, UniProt P35354)
Test: cell-based
Settings: IC50 COX-2, cell based, A431
endpoint name: IC50 (µM)
I only need the number, in µM, no unit after it.

Which value of IC50 has been reported for CC(C)[C@@H]1CC[C@@H](C)C[C@@H]1O [neomenthol, (+)-Neomenthol] in the records?
39.1

* * *

Tested on: hyaluronidase (HYAL)
Assay: Hyaluronidase assay, cell-based
Design: species or system human
Details: read-out: IC50 HYAL, K562
endpoint name: pIC50
Would you please state pIC50, meaning minus log10 of the concentration in mol/L, as a bare number?

Which value of pIC50 has been reported for CC(=O)N[C@@H](CS)C(=O)O in the records?
5.12

* * *

Molecular target: Cathepsin D (CATD) (Homo sapiens)
Sequence (P07339 65-412): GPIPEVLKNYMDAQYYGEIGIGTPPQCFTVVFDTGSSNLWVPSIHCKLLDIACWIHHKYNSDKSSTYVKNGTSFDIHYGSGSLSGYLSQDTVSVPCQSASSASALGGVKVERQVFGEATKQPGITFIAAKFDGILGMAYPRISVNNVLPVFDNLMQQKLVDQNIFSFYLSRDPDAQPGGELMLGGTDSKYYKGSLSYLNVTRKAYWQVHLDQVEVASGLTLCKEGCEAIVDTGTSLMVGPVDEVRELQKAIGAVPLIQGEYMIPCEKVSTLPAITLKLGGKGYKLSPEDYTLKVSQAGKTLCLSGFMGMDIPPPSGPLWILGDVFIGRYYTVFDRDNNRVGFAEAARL
Test: Cathepsin D assay, cell-based
Conditions: IC50 CAT D, FaDu
endpoint name: pIC50
Would you please state pIC50, meaning minus log10 of the concentration in mol/L, as a bare number?

Which value of pIC50 has been reported for CC(C)[C@@H]1CC[C@@H](C)C[C@@H]1O [neomenthol, (+)-Neomenthol] in the records?
4.13

* * *

Biological target: COX-2 (Homo sapiens)
Sequence (P35354 18-604): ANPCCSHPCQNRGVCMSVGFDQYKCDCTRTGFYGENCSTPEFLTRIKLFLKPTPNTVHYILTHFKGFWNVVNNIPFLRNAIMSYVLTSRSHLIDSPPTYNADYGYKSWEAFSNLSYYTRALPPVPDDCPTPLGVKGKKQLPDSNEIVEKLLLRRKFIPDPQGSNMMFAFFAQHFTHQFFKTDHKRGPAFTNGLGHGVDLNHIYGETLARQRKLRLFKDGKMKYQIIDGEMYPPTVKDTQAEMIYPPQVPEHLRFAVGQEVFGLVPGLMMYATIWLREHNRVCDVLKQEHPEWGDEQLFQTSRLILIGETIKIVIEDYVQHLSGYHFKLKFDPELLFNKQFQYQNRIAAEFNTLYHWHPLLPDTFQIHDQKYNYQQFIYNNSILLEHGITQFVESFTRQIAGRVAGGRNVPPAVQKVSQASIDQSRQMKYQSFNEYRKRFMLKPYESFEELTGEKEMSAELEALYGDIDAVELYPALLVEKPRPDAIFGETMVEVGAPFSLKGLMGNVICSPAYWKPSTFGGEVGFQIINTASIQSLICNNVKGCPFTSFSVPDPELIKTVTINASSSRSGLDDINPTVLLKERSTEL
Assay: cell-based
Settings: IC50 COX-2, cell based, FaDu
endpoint name: pIC50
Would you please state pIC50, meaning minus log10 of the concentration in mol/L, as a bare number?

Which value of pIC50 has been reported for CC(C)[C@@H]1CC[C@@H](C)C[C@@H]1O [neomenthol, (+)-Neomenthol] in the records?
4.06
